Consider the following molecules; for each one, report its DC50.
# measurementTarget: B-RAF G466V (Homo sapiens, UniProt P15056, G466V)
# Construct: expressed in transfected cells; host or cells: T-Rex 293 cells (Invitrogen #R71007)
# Sequence (P15056 whole entry G466V): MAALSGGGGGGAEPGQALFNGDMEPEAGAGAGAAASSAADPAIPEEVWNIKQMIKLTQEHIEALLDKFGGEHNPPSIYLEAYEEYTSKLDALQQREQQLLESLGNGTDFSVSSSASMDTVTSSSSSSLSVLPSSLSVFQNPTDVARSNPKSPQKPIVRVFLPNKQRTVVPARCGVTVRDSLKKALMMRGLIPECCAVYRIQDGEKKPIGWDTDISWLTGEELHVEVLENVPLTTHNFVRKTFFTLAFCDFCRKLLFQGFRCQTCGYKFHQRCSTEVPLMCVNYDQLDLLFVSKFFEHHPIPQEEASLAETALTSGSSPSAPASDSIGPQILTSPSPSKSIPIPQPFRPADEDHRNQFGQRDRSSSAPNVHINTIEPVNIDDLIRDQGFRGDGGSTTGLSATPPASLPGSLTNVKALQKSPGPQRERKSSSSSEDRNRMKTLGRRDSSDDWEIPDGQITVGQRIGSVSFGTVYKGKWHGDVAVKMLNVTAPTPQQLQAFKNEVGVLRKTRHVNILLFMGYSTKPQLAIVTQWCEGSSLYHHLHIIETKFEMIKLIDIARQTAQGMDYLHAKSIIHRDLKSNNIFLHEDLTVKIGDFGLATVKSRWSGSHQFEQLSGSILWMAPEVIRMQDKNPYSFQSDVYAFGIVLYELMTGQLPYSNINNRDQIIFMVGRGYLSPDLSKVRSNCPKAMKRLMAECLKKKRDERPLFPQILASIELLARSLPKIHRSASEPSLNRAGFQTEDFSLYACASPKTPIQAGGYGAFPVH
# procedureDetails: Target protein degradation, assay D: T-Rex 293 cells, HA-BRAF_G466V, 384 well format
# Assay type: cell-based
# condition: Assay D, T-Rex 293 HA-BRAF_G466V cells, 24 hours, Examples 83-269
# Description: D. T-Rex 293 Cells (384 Well Format) T-Rex 293 cells were purchased from Invitrogen (#R71007), and stably transfected with a pcDNA4/TO_HA-BRAF_G466V construct, using 400 ug Zeocin for selection. […] BRAF intensity is quantified in HCS Studio software (ThermoFisher), using a custom script, exported, analyzed using KNIME, and curve curation is performed in an ELN (Scilligence). Cell toxicity is measured via comparing number of nuclei in PROTAC treated wells to DMSO controls. […]

Consider the molecule N#Cc1c(NS(=O)(=O)N2CC[C@@H](F)C2)ccc(F)c1Oc1ccc2ncn(-c3cccc(N4CCCC(CN5CCN(c6ccc7c(c6)CN([C@H]6CCC(=O)NC6=O)C7=O)CC5)C4)c3)c(=O)c2c1 (stereo partly drawn) and give its recorded DC50.
1 to 10 nM

Consider the molecule "N#Cc1c(NS(=O)(=O)N2CC[C@@H](F)C2)ccc(F)c1Oc1ccc2ncn(-c3ccc(N4CCC(CN5CC(c6ccc([C@H]7CCC(=O)NC7=O)cc6F)C5)CC4)cc3)c(=O)c2c1" and give its recorded DC50.
> 30 nM

Consider the molecule N#Cc1c(NS(=O)(=O)N2CC[C@@H](F)C2)ccc(F)c1Oc1ccc2ncn(-c3ccc(N4CCN(c5ccc6c(c5)C(=O)N(C5CCC(=O)NC5=O)C6=O)CC4)nc3)c(=O)c2c1 (stereo partly drawn) and give its recorded DC50.
1 to 10 nM

* * *

# measurementTarget: B-RAF V600E (Homo sapiens, UniProt P15056, V600E)
# Construct: expressed in transfected cells; host or cells: T-Rex 293 cells (Invitrogen #R71007)
# Sequence (P15056 whole entry V600E): as the sequence (P15056 whole entry G466V) above, with V466G, V600E counted along it
# procedureDetails: Target protein degradation, assay C: T-Rex 293 cells, HA-BRAF_V600E, 384 well format
# Format: cell-based
# condition: Assay C, T-Rex 293 HA-BRAF_V600E cells, 24 hours, Examples 83-269
assayEndpoint: DC50

Consider the molecule Cc1cc(N2CC(CN3CCN(c4ccc(-n5cnc6ccc(Oc7c(F)ccc(NS(=O)(=O)N8CC[C@@H](F)C8)c7C#N)cc6c5=O)cc4)CC3)C2)cc2c1C(=O)N([C@H]1CCC(=O)NC1=O)C2 [Example 234] and give its recorded DC50.
50 to 500 nM

Consider the molecule N#Cc1c(NS(=O)(=O)N2CC[C@@H](F)C2)ccc(F)c1Oc1ccc2ncn(-c3cccc(C4CCN(CC5CCN(c6ccc7c(c6)CN([C@H]6CCC(=O)NC6=O)C7=O)CC5)CC4)c3)c(=O)c2c1 [Example 240] and give its recorded DC50.
5 to 50 nM

Consider the molecule N#Cc1c(NS(=O)(=O)N2CC[C@@H](F)C2)ccc(F)c1Oc1ccc2ncn(-c3ccc(NC4CCN(c5ccc6c(c5)C(=O)N(C5CCC(=O)NC5=O)C6=O)CC4)nc3)c(=O)c2c1 (some centres unmarked) [Example 157] and give its recorded DC50.
50 to 500 nM

Consider the molecule N#Cc1c(NS(=O)(=O)N2CC[C@@H](F)C2)ccc(F)c1Oc1ccc2ncn(-c3ccc(N4CCC(CN5CCN(CC6CCN(c7ccc8c(c7)CN([C@H]7CCC(=O)NC7=O)C8=O)CC6)CC5)CC4)cc3)c(=O)c2c1 [Example 185] and give its recorded DC50.
50 to 500 nM

Consider the molecule N#Cc1c(NS(=O)(=O)N2CC[C@@H](F)C2)ccc(F)c1Oc1ccc2ncn(-c3cnc(N4CCC(CN5CCC6(CC5)CN(c5cccc7c5CN(C5CCC(=O)NC5=O)C7=O)C6)CC4)nc3)c(=O)c2c1 (some centres unmarked) [Example 131] and give its recorded DC50.
50 to 500 nM
